Entry source: the Immune Epitope Database (IEDB)

# target.under.test: HLA-B*27:03
# procedure.summary: IEDB peptide-MHC binding, purified MHC/competitive/fluorescence; filed as Kd, often an IC50 or EC50 that approximates it; bounds were set here for any values at or beyond the usual limits of such assays
# run.parameters: source organism: Influenza A virus (A/Gf/HK/SSP607/2003(H9N2))

>  <ordered.residues>
AMITYITRK

>  <Kd>
≥ 20 µM

$$$$

----------
# target.under.test: HLA-A*02:01
# procedure.summary: IEDB peptide-MHC binding, purified MHC/competitive/fluorescence; filed as Kd, often an IC50 or EC50 that approximates it; bounds were set here for any values at or beyond the usual limits of such assays
# run.parameters: source organism: Horsepox virus
pKd: −log10 of the molar value.

>  <ordered.residues>
SLKDVLVSV

>  <target.under.test>
HLA-A*02:01

>  <pKd>
8.44

$$$$

----------
# target.under.test: HLA-B*18:01
# procedure.summary: IEDB peptide-MHC binding, purified MHC/competitive/fluorescence; filed as Kd, often an IC50 or EC50 that approximates it; bounds were set here for any values at or beyond the usual limits of such assays
# run.parameters: source organism: Orthohantavirus sinnombreense
pKd: −log10 of the molar value.

>  <ordered.residues>
LVTARQKLK

>  <target.under.test>
HLA-B*18:01

>  <pKd>
≤ 4.70

$$$$

----------
# target.under.test: HLA-A*29:02
# procedure.summary: IEDB peptide-MHC binding, purified MHC/competitive/radioactivity; filed as Kd, often an IC50 or EC50 that approximates it; bounds were set here for any values at or beyond the usual limits of such assays
# run.parameters: source organism: Influenza A virus (A/Wilson-Smith/1933(H1N1))
pKd: −log10 of the molar value.

>  <ordered.residues>
DQHGRMNYYW

>  <target.under.test>
HLA-A*29:02

>  <pKd>
5.66

$$$$

----------
# target.under.test: HLA-A*02:01
# procedure.summary: IEDB peptide-MHC binding, purified MHC/competitive/radioactivity; filed as Kd, often an IC50 or EC50 that approximates it; bounds were set here for any values at or beyond the usual limits of such assays
# run.parameters: source organism: Dengue virus 3 China/80-2/1980
pKd: −log10 of the molar value.

>  <ordered.residues>
YAMCLNTFVL

>  <target.under.test>
HLA-A*02:01

>  <pKd>
7.94

$$$$
>  <ordered.residues>
QLWTALVSL

>  <target.under.test>
HLA-A*02:01

>  <pKd>
8.79

$$$$
>  <ordered.residues>
KMDLGVPLL

>  <target.under.test>
HLA-A*02:01

>  <pKd>
8.28

$$$$

----------
# target.under.test: HLA-A*26:01
# procedure.summary: IEDB peptide-MHC binding, purified MHC/competitive/radioactivity; filed as Kd, often an IC50 or EC50 that approximates it; bounds were set here for any values at or beyond the usual limits of such assays
# run.parameters: source organism: Dengue virus 1 Nauru/West Pac/1974
pKd: −log10 of the molar value.

>  <ordered.residues>
EAEPPFGESY

>  <pKd>
6.17

$$$$

----------
# target.under.test: HLA-A*68:02
# procedure.summary: IEDB peptide-MHC binding, purified MHC/competitive/radioactivity; filed as Kd, often an IC50 or EC50 that approximates it; bounds were set here for any values at or beyond the usual limits of such assays
# run.parameters: source organism: Dengue virus 1 Singapore/S275/1990
pKd: −log10 of the molar value.

>  <ordered.residues>
TSVGVNMCTL

>  <pKd>
7.43

$$$$

----------
# target.under.test: HLA-A*02:03
# procedure.summary: IEDB peptide-MHC binding, purified MHC/direct/fluorescence; filed as Kd, often an IC50 or EC50 that approximates it; bounds were set here for any values at or beyond the usual limits of such assays
# run.parameters: source organism: Orthohantavirus hantanense
pKd: −log10 of the molar value.
recorded.metric: pKd

>  <ordered.residues>
LVRDITESL

>  <recorded.metric>
pKd

>  <assay.result>
≤ 4.70

$$$$

----------
# target.under.test: HLA-A*02:06
# procedure.summary: IEDB peptide-MHC binding, purified MHC/competitive/radioactivity; filed as Kd, often an IC50 or EC50 that approximates it; bounds were set here for any values at or beyond the usual limits of such assays
# run.parameters: source organism: Dengue virus 1 Singapore/S275/1990
pKd: −log10 of the molar value.
recorded.metric: pKd

>  <ordered.residues>
LTLKGMSYV

>  <assay.result>
8.15

$$$$

----------
# target.under.test: HLA-A*68:02
# procedure.summary: IEDB peptide-MHC binding, purified MHC/direct/fluorescence; filed as Kd, often an IC50 or EC50 that approximates it; bounds were set here for any values at or beyond the usual limits of such assays
# run.parameters: source organism: H9N2 subtype Influenza A virus (A/swine/Korea/S83/2004(H9N2))
pKd: −log10 of the molar value.

>  <ordered.residues>
FQKDAKVLF

>  <pKd>
≤ 4.70

$$$$

----------
# target.under.test: HLA-A*68:01
# procedure.summary: IEDB peptide-MHC binding, purified MHC/competitive/radioactivity; filed as Kd, often an IC50 or EC50 that approximates it; bounds were set here for any values at or beyond the usual limits of such assays
# run.parameters: source organism: Dengue virus 2 Jamaica/1409/1983

>  <ordered.residues>
ASSMVNGVVR

>  <target.under.test>
HLA-A*68:01

>  <unit.of.measurement>
nM

>  <Kd>
47.7

$$$$

----------
# target.under.test: HLA-A*01:01
# procedure.summary: IEDB peptide-MHC binding, purified MHC/competitive/radioactivity; filed as Kd, often an IC50 or EC50 that approximates it; bounds were set here for any values at or beyond the usual limits of such assays
# run.parameters: source organism: Influenza A virus (A/Wilson-Smith/1933(H1N1))
recorded.metric: Kd

>  <ordered.residues>
DQHGRMNYYW

>  <assay.result>
≥ 70.4 µM

$$$$

----------
# target.under.test: HLA-B*27:05
# procedure.summary: IEDB peptide-MHC binding, purified MHC/direct/fluorescence; filed as Kd, often an IC50 or EC50 that approximates it; bounds were set here for any values at or beyond the usual limits of such assays
# run.parameters: source organism: Mycobacterium tuberculosis
pKd: −log10 of the molar value.

>  <ordered.residues>
LTFLDCLYY

>  <pKd>
≤ 4.70

$$$$

----------
# target.under.test: HLA-B*58:01
# procedure.summary: IEDB peptide-MHC binding, purified MHC/direct/fluorescence; filed as Kd, often an IC50 or EC50 that approximates it; bounds were set here for any values at or beyond the usual limits of such assays
# run.parameters: source organism: Camelpox virus M-96
pKd: −log10 of the molar value.
pKd reference

>  <ordered.residues>
NRLKPRDFK

>  <pKd>
≤ 4.70

$$$$
>  <ordered.residues>
YERGNIIIF

>  <pKd>
≤ 4.70

$$$$
>  <ordered.residues>
FVFEATKLY

>  <pKd>
≤ 4.70

$$$$

----------
# target.under.test: HLA-A*03:01
# procedure.summary: IEDB peptide-MHC binding, purified MHC/competitive/radioactivity; filed as Kd, often an IC50 or EC50 that approximates it; bounds were set here for any values at or beyond the usual limits of such assays
# run.parameters: source organism: Homo sapiens
recorded.metric: Kd (nM)

>  <ordered.residues>
ILIKRRQQK

>  <recorded.metric>
Kd

>  <assay.result>
28.9

$$$$

----------
Kd reference
# target.under.test: HLA-A*29:02
# procedure.summary: IEDB peptide-MHC binding, purified MHC/competitive/radioactivity; filed as Kd, often an IC50 or EC50 that approximates it; bounds were set here for any values at or beyond the usual limits of such assays
# run.parameters: source organism: Mammarenavirus brazilense

>  <ordered.residues>
TERSASGGVY

>  <target.under.test>
HLA-A*29:02

>  <qualifying.sign>
≥

>  <Kd (µM)>
55.5

$$$$
>  <ordered.residues>
KTLHSSVQSY

>  <target.under.test>
HLA-A*29:02

>  <qualifying.sign>
=

>  <Kd (µM)>
6.18

$$$$

----------
# target.under.test: HLA-A*30:02
# procedure.summary: IEDB peptide-MHC binding, purified MHC/competitive/radioactivity; filed as Kd, often an IC50 or EC50 that approximates it; bounds were set here for any values at or beyond the usual limits of such assays
# run.parameters: source organism: Dengue virus 2 Peru/IQT2913/1996
recorded.metric: Kd (nM)

>  <ordered.residues>
KKGKVVGLY

>  <unit.of.measurement>
nM

>  <assay.result>
85.3

$$$$

----------
pKd reference
# target.under.test: HLA-B*08:01
# procedure.summary: IEDB peptide-MHC binding, purified MHC/direct/fluorescence; filed as Kd, often an IC50 or EC50 that approximates it; bounds were set here for any values at or beyond the usual limits of such assays
# run.parameters: source organism: Brucella melitensis
pKd: −log10 of the molar value.
recorded.metric: pKd

>  <ordered.residues>
RLWNGRRCR

>  <target.under.test>
HLA-B*08:01

>  <recorded.metric>
pKd

>  <assay.result>
≤ 4.70

$$$$
>  <ordered.residues>
RVISDGYFK

>  <target.under.test>
HLA-B*08:01

>  <recorded.metric>
pKd

>  <assay.result>
≤ 4.70

$$$$
